subject-of-test: recombinant human mGluR4a receptors (Homo sapiens, UniProt Q14833)
Sequence (Q14833 33-912): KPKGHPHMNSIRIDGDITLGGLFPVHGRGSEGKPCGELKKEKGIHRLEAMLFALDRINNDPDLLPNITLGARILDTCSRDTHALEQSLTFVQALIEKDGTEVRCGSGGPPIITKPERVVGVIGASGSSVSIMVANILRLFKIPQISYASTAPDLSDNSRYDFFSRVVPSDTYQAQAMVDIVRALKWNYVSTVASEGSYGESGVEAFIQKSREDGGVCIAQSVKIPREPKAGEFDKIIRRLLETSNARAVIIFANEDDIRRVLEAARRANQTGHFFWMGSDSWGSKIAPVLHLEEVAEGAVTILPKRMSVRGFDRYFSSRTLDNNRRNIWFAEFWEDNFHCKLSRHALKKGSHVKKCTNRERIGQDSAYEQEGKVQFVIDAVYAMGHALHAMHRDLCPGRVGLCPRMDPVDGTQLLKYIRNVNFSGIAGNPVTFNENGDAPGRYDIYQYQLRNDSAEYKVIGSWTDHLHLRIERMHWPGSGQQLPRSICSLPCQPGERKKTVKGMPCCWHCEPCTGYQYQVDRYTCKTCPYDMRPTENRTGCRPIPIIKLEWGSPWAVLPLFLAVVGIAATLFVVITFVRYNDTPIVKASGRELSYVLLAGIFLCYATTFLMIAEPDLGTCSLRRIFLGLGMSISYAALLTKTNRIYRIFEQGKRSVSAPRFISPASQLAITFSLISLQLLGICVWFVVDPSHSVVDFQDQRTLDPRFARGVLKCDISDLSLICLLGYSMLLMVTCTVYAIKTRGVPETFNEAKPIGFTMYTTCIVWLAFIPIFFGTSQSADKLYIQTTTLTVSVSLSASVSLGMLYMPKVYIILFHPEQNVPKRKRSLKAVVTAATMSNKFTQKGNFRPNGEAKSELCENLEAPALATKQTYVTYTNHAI
experiment: Fluorescent cell based Ca2+ mobilization assay (FLIPR) on HEK-293 cells expressing human mGluR4
experimental-parameters: HEK-293 cells expressing hmGluR4, Fluo-4, potentiation of EC25 glutamate; mean of at least three independent experiments in duplicate; read-out: Ca2+ Flux (mean EC50)
pEC50: −log10 of the molar value.
measured-endpoint: pEC50

query-smiles	subject-of-test	pEC50
O=C(Nc1ccc(N2CCN(C(=O)c3ccccc3)CC2)c(Cl)c1)c1ccccn1	recombinant human mGluR4a receptors (Homo sapiens, UniProt Q14833)	5.00 to 6.00
CCC(=O)N1CCN(c2ccc(NC(=O)c3ccccn3)cc2Cl)CC1	recombinant human mGluR4a receptors (Homo sapiens, UniProt Q14833)	5.00 to 6.00
O=C(Nc1ccc(Oc2ncccn2)c(Cl)c1)c1ccccn1	recombinant human mGluR4a receptors (Homo sapiens, UniProt Q14833)	> 6.00
COc1ccccc1C(=O)COc1cccc(NC(=O)c2ccccn2)c1	recombinant human mGluR4a receptors (Homo sapiens, UniProt Q14833)	5.00 to 6.00

Continue with the next compound.
q: Recorded pEC50 of `COc1cccc(NC(=O)c2ccncn2)c1` , please.
a: 5.00 to 6.00

----------
subject-of-test: recombinant human mGluR4a receptors (Homo sapiens, UniProt Q14833)
experiment: Fluorescent cell based Ca2+ mobilization assay (FLIPR) on HEK-293 cells expressing human mGluR4
experimental-parameters: HEK-293 cells expressing hmGluR4, Fluo-4, potentiation of EC25 glutamate; mean of at least three independent experiments in duplicate; read-out: Ca2+ Flux (mean EC50)
pEC50: −log10 of the molar value.
Parameter pEC50: see the listing below.

# example entries with known answers
compound	measured-endpoint	assay-value
COc1cccc(C(=O)COc2cccc(NC(=O)c3ccccn3)c2)c1	pEC50	5.00 to 6.00
COc1cccc(NC(=O)c2nccs2)c1	pEC50	5.00 to 6.00
COc1cc(NC(=O)c2cccc(F)n2)ccc1F	pEC50	5.00 to 6.00
COc1cc(NC(=O)c2nccs2)ccc1F	pEC50	5.00 to 6.00
O=C(Nc1ccc(N2CCN(Cc3ccccc3)CC2)c(Cl)c1)c1ccccn1	pEC50	5.00 to 6.00

q: Recorded pEC50 of `O=C(COc1cccc(NC(=O)c2ccccn2)c1)c1cccc(Cl)c1` , please.
a: 5.00 to 6.00

q: Recorded pEC50 of `O=C(Nc1ccc(Oc2ccccn2)c(Cl)c1)c1ccccn1` , please.
a: > 6.00

q: Recorded pEC50 of `O=C(Nc1cccc(Cl)c1)c1cccs1` , please.
a: 5.00 to 6.00

q: Recorded pEC50 of `O=C(Nc1cccc(Cl)c1)c1ccc[nH]1` , please.
a: 5.00 to 6.00

q: Recorded pEC50 of `O=C(Nc1ccc(Oc2ncccn2)c(Cl)c1)c1nccs1` , please.
a: 5.00 to 6.00

----------
Parameter melting point: see the listing below.

# example entries with known answers
molecule	assay-value
O=C(Nc1cccc(F)c1)c1ccccn1 [Compound 1-4, N-(3-Fluorophenyl)picolinamide]	74 to 75 °C
O=C(Nc1ccc(N2CCN(Cc3ccccc3)CC2)c(Cl)c1)c1ccccn1 [Compound 4-5]	92 to 94 °C
COc1ccccc1C(=O)COc1cccc(NC(=O)c2ccccn2)c1 [Compound 2-9]	136 to 137 °C
COc1cccc(NC(=O)c2cc(C)on2)c1 [Compound 2-13]	98 to 101 °C
O=C(Nc1cccc(Cl)c1)c1cccs1 [Compound 1-2]	139 to 140 °C
O=C(Nc1cccc(OCC(=O)c2ccccc2F)c1)c1ccccn1 [Compound 2-15]	98 to 101 °C
CCC(=O)N1CCN(c2ccc(NC(=O)c3ccccn3)cc2Cl)CC1 [Compound 4-3]	176 to 179 °C
O=C(Nc1cccc(Cl)c1)c1ccc[nH]1 [Compound 1-5]	138 to 140 °C

q: Recorded melting point of O=C(COc1cccc(NC(=O)c2ccco2)c1)c1ccc(F)cc1 [Compound 2-2] , please.
a: 148 to 149 °C

q: Recorded melting point of COc1cccc(C(=O)COc2cccc(NC(=O)c3ccccn3)c2)c1 [Compound 2-10] , please.
a: 114.5 to 115.5 °C

q: Recorded melting point of O=C(Nc1ccc(Oc2ncccn2)c(Cl)c1)c1nccs1 [Compound 3-4] , please.
a: 154 °C

q: Recorded melting point of COc1cc(NC(=O)c2cccc(F)n2)ccc1F [Compound 2-17] , please.
a: 124 to 125 °C

----------
Parameter melting point: see the listing below.

# example entries with known answers
compound	melting point
O=C(Nc1cccc(OCCCc2ccccc2)c1)c1ccccn1 [Compound 2-8]	49 to 51 °C
O=C(Nc1ccc(Oc2ccc(F)cc2)c(Cl)c1)c1ccccn1 [Compound 3-13]	104 to 105 °C

q: Recorded melting point of Cc1nc(C(=O)Nc2ccc(Oc3ncccn3)c(Cl)c2)cs1 [Compound 3-3] , please.
a: 142 to 150 °C

q: Recorded melting point of N#Cc1ccc(Oc2ccc(NC(=O)c3ccccn3)cc2Cl)cc1 [Compound 3-15] , please.
a: 157 to 159 °C

----------
Parameter melting point: see the listing below.

# example entries with known answers
molecule	assay-value
COc1cccc(NC(=O)c2csc(C)n2)c1 [Compound 2-4]	87 to 89 °C
O=C(Nc1ccc(Oc2ncccn2)c(Cl)c1)c1ccccn1 [Compound 3-2]	195 to 197 °C
O=C(Nc1ccc(Oc2cc(F)ccc2F)c(Cl)c1)c1ccccn1 [Compound 3-6]	102 to 104 °C
COc1cc(NC(=O)c2nccs2)ccc1F [Compound 2-18]	103 to 105 °C

q: Recorded melting point of COc1cc(NC(=O)c2ccccn2)ccc1Oc1ncccn1 [Compound 3-9] , please.
a: 203 to 205 °C

q: Recorded melting point of O=C(COc1cccc(NC(=O)c2ccccn2)c1)c1cccc(Cl)c1 [Compound 2-7] , please.
a: 139 to 140 °C

q: Recorded melting point of COc1cccc(NC(=O)c2nccs2)c1 [Compound 2-5] , please.
a: 53 to 57 °C

q: Recorded melting point of O=C(Nc1ccc(N2CCN(C(=O)c3ccccc3)CC2)c(Cl)c1)c1ccccn1 [Compound 4-4] , please.
a: 161 to 163 °C

q: Recorded melting point of O=C(Nc1ccc(Oc2ccc(C(F)(F)F)cn2)c(Cl)c1)c1ccccn1 [Compound 3-8] , please.
a: 92 to 94 °C

q: Recorded melting point of O=C(COc1cccc(NC(=O)c2ccccn2)c1)c1cccc(F)c1 [Compound 2-11] , please.
a: 118 to 121 °C

----------
Parameter EC50: see the listing below.
subject-of-test: recombinant human mGluR4a receptors (Homo sapiens)
experiment: Fluorescent cell based Ca2+ mobilization assay (FLIPR) on HEK-293 cells expressing human mGluR4
experimental-parameters: HEK-293 cells expressing hmGluR4, Fluo-4, potentiation of EC25 glutamate; mean of at least three independent experiments in duplicate; read-out: Ca2+ Flux (mean EC50)

molecule	measured-endpoint	assay-value
COc1cccc(NC(=O)c2cc(C)on2)c1	EC50	1 to 10 µM

q: Recorded EC50 of `O=C(COc1cccc(NC(=O)c2ccccn2)c1)c1cccc(F)c1` , please.
a: 1 to 10 µM

q: Recorded EC50 of O=C(Nc1cccc(Cl)c1)c1ccccn1 [Compound 1-3, N-(3-Chlorophenyl)picolinamide] , please.
a: < 1 µM

q: Recorded EC50 of `COc1cccc(NC(=O)c2csc(C)n2)c1` , please.
a: 1 to 10 µM

q: Recorded EC50 of `O=C(Nc1cccc(OCC(=O)c2ccccc2Cl)c1)c1ccccn1` , please.
a: 1 to 10 µM

q: Recorded EC50 of `O=C(Nc1cccc(OCC(=O)c2ccccc2F)c1)c1ccccn1` , please.
a: 1 to 10 µM

q: Recorded EC50 of `O=C(Nc1ccc(Oc2ccc(C(F)(F)F)cn2)c(Cl)c1)c1ccccn1` , please.
a: 1 to 10 µM

q: Recorded EC50 of `O=C(Nc1cccc(OCCCc2ccccc2)c1)c1ccccn1` , please.
a: 1 to 10 µM

q: Recorded EC50 of COc1cc(NC(=O)c2ccccn2)ccc1F [Compound 2-14, N-(4-Fluoro-3-methoxyphenyl)picolinamide] , please.
a: < 1 µM

q: Recorded EC50 of `N#Cc1ccc(Oc2ccc(NC(=O)c3ccccn3)cc2Cl)cc1` , please.
a: < 1 µM

----------
measured-endpoint: melting point

molecule	measured-endpoint	assay-value
N#Cc1cccnc1Oc1ccc(NC(=O)c2ccccn2)cc1Cl [Compound 3-16]	melting point	223 to 228 °C
O=C(Nc1ccc(Oc2cccc(F)c2)c(Cl)c1)c1ccccn1 [Compound 3-12]	melting point	78 to 80 °C

q: Recorded melting point of O=C(Nc1ccc(Oc2ccccn2)c(Cl)c1)c1ccccn1 [Compound 3-5] , please.
a: 254 to 260 °C

q: Recorded melting point of COc1cccc(NC(=O)c2ccncn2)c1 [Compound 2-16] , please.
a: 119 to 122 °C

q: Recorded melting point of CC(C)C(=O)N1CCN(c2ccc(NC(=O)c3ccccn3)cc2Cl)CC1 [Compound 4-2] , please.
a: 156 to 158 °C
